Experiment: growth inhibitors of H69AR lung tumor, primary screen, human, duplicate replicates (AID 580);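 further: 100% = mean luminescence of untreated wells and 0% = no signal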
Conditions: H69AR lung tumor cells viability, ATP luminescence, 72 h; at 10 µM
Active and inactive are the calls of the source.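 How the source made its calls: active means viability at or under a set limit in both replicates, limit being median viability minus 3 SD (cut at about 48% in these data, passing the limit was not always enough); inconclusive means at or under the limit in just one replicate; inactive means at or above the limit in both replicates.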
Output constraint: value belongs to active, inactive

Worked examples, 3 compounds total:
O=C(NCc1nnc(SCC(=O)N2CCC(Cc3ccccc3)CC2)o1)c1ccccc1F; inactive
CCOc1ccccc1OCCCCN1CCCC1; inactive
O=C(c1noc2c1CCc1ccccc1-2)N1CCOCC1; inactive

// outcome(item) with item = c1ccc(Cn2nnnc2C(c2cccs2)N2CCSCC2)cc1 (stereo not drawn)
inactive

Would you mind telling me which call this test gave "CCCCn1c(=O)[nH]c(=O)c2c1nc(COc1ccc(C#N)cc1)n2CCC" ?
inactive

For "CCOC(=O)N1CCN(C(=O)c2ccc3c(=O)n(Cc4ccc(OC)cc4)c(=S)[nH]c3c2)CC1" , which call appears in the assay record?
inactive

Which result was noted for this compound in the test: "Cc1cc(C)nc(SC2=CS(=O)(=O)c3ccccc32)n1"
active

Could you kindly confirm the outcome this assay logged for "Cc1cc(NS(=O)(=O)c2ccc(NC(=O)COc3ccc(Cl)cc3)cc2)no1" ?
inactive

* * *

Some compounds, each annotated with its measured differential viability (reversal).
Experiment: reversal of MRP1-mediated doxorubicin resistance, pilot screen, H69AR cells, doxorubicin co-treatment (AID 601)
Settings: H69AR cells + 2 uM doxorubicin, CellTiter-Glo, 72 h; at 10 µM; stronger effect = higher value
Give just the numeric value; % need not be written.

Recorded differential viability (reversal), per entry:
Cc1nc(-c2ccc(NC(=O)c3cccs3)cc2)cs1; 9.12
CCCC(=O)N1CCN(c2ccc(NC(=O)c3ccc(Br)o3)cc2)CC1; 3.6
Cc1c(N=C2SCC(=O)N2c2c(C)n(C)n(-c3ccccc3)c2=O)c(=O)n(-c2ccccc2)n1C; 3.54
COc1ccc(C(C)NC(=O)c2ccoc2C)cc1OC (centres undefined); -4.93
CCSc1nc(N)c(C#N)c(-c2ccccc2Cl)c1C#N; -3
CN=c1sc2ccccc2n1CC(O)COCc1ccco1 (centres undefined); 10.8
COc1ccc(-c2ccc(-c3noc(-c4cccs4)n3)c(OC)n2)cc1; -5.54
C=CCN(CC=C)C(=O)CN1C(=O)c2ccccc2C1=O; 0.065
Clc1ccc(Cl)c(-c2nn3c(Cn4cnc5ccccc54)nnc3s2)c1; 6.11
Clc1ccc2c(c1)C(N1CCNCC1)=Nc1ccccc1O2; 11.4

Consider now this further compound.
// lookup differential viability (reversal) for CC(OC1=CC(=O)CCC1)C(=O)c1ccccc1 (centres undefined)
18

* * *

Test: reversal of MRP1-mediated doxorubicin resistance, pilot screen, H69AR cells, doxorubicin co-treatment (AID 601)
Details: H69AR cells + 2 uM doxorubicin, CellTiter-Glo, 72 h; measured here: viability with 2 uM doxorubicin; at 10 µM; stronger effect = lower value
# note: exactly 90% is not below, so it is Not fulfilled; use Fulfilled for viability strictly under it

CCc1nnc(NC(=O)CSc2nnc(-c3ccccc3OC)n2-c2ccccc2)s1; Fulfilled

is_below(viability, 90%) for "COc1ccccc1OCc1nc2ccccc2[nH]1" ?
Not fulfilled

* * *

# viability values compiled below
Test: reducers of endogenous Her2 protein level, primary screen, SKBR3 breast tumor cells, AlphaScreen, ATP viability (AID 461);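 further: percent of carrier control wells set as 100% viability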
Details: 18-24 h, measured here: SKBR3 viability, ATP luminescence, at 10 µM
Report as a plain number; the unit % is understood.

Recorded viability of "CC(C)N(O)C(=O)NC(C)(C)C" , please.
110

What does the data say about its viability? Entry: "Cc1sc2nc(SCC(=O)N3CCN(CCO)CC3)n(-c3ccccc3)c(=O)c2c1C"
118

Any idea what viability was measured for CN1CC=C2C(C#N)=C(N)C(C#N)(C#N)[C@H](c3cccc(Cl)c3)C2C1 (stereo partly specified) ?
94

Data request, read-out viability, for "Cc1ccc(/C=c2\s/c(=C(/C#N)C(=O)N3CCCC3)n(Cc3ccco3)c2=O)s1"
87.5

Return reported viability; argument: "CCOC(=O)c1sc2nc(SCC#N)n(CCCN3CCCC3=O)c(=O)c2c1C"
80.5

Look at this compound and give its reported viability. "Cc1ccc(CNC(=O)c2coc(=O)c3ccccc23)o1"
93.5

* * *

Test: growth inhibitors of H69AR lung tumor, primary screen, human, duplicate replicates (AID 580);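 further: 100% = mean luminescence of untreated wells and 0% = no signal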
Conditions: H69AR lung tumor cells viability, ATP luminescence, 72 h; at 10 µM
Active and inactive are the calls of the source.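 How the source made its calls: active means viability at or under a set limit in both replicates, limit being median viability minus 3 SD (cut at about 48% in these data, passing the limit was not always enough); inconclusive means at or under the limit in just one replicate; inactive means at or above the limit in both replicates.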
Answer with one of the outcomes given here: true (1) for active, false (0) for inactive

The examples below pair each entry with its known result.
CCOC(=O)CSc1nc2cc(C(=O)N3CCC(C(N)=O)CC3)ccc2c(=O)n1-c1ccccc1; false (0)
CS(=O)(=O)N1CCc2cc(S(=O)(=O)Nc3ccc4oc5c(c4c3)CCCC5)ccc21; false (0)
OC[C@H]1O[C@@H](n2cnc3c(Nc4ccccc4)ncnc32)[C@H](O)[C@@H]1O; false (0)

Entry "O=C(O)CCn1c(=O)c2ccccc2c2ccccc2c1=O" : call = ?
false (0)

Could you check what this test reported for COc1ccccc1C(=O)N1CCCC(c2nc(-c3cc(OC)c(OC)c(OC)c3)no2)C1 (stereo not given) ?
false (0)

Call for entry "C=CCSc1nnc(-c2ccc(Cl)cc2Cl)o1" :
false (0)

Hi, do you know how "Cc1ccc2c(C)nc(NC3=NCN(C(C)C)CN3)nc2c1" came out in this test?
false (0)

Called result for O=C1C2CCCN2C(c2ccccc2)N1c1ccc(Cl)cc1 (stereo not given)
false (0)

Could you kindly confirm the outcome this assay logged for "CC(C)Cn1c(N)c(C(=O)NCc2cccs2)c2nc3ccccc3nc21" ?
true (1)

Given CCN(CC)CCCN1C(=O)C(=O)/C(=C(/O)c2ccc3c(c2)OCO3)C1c1ccccn1 (stereo not given) , state the outcome it received in this test.
false (0)

* * *

Examples of molecules with documented viability follow.
Experiment: HUVEC growth inhibition – cell-based, human, primary screen (AID 575);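 further: 100% = median of untreated cell wells with 0.1% DMSO on each plate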
Conditions: HUVEC proliferation, CellTiter-Glo luminescence, 72 h; at 10 µM; stronger effect = lower value
Give just the numeric value; % need not be written.

# example entries with known answers
Cc1cc(N2C(=O)C(=O)/C(=C(/O)c3ccc(F)cc3)C2c2ccc(F)cc2)no1 (stereo unspecified); 78.3
CCOC(=O)NC(c1ccccc1)C1CCCCC1=O (stereo unspecified); 103
Cc1ccc(-n2nnnc2SCC(=O)N2CCc3ccccc3C2)cc1; 99.9

# get_value(readout='viability', item= "Nc1c(C(=O)NCc2ccco2)nnn1Cc1ccccc1" )
92.1

Would you mind telling me what viability value was observed for "O=C(Nc1ccc(-c2nc3ncccc3o2)cc1)c1ccc(Br)o1" ?
104

Which viability reading was recorded for the molecule "Cc1cc(NC(=O)CSc2nc(C3CCCCC3)nc3ccccc23)no1" ?
99.8

* * *

Test: growth suppression of yeast trafficking mutant, preliminary HTS, modulators of trafficking downstream of Golgi apparatus project, 1536-format plate, OD 615 nm (AID 637)
Conditions: yeast transport mutant growth, absorbance 615 nm, 18 h; stronger effect = higher value
PROPERTY_NAME: inhibition (%)
The response must be a number in % with no trailing unit.

Using the record for CCC1Cc2c(nc3c4c(nc(N5CCOCC5)c(C#N)c24)NC(C)=N3)O1 (centres undefined) , report its inhibition.
4.76

Item CC1CCCc2sc3nc(NCc4ccco4)n4ncnc4c3c21 (centres undefined) has what recorded inhibition?
20.3

Could you share which inhibition value was measured for "CN(CC(=O)Nc1sccc1C#N)C1CCCCC1" ?
-4.44

Tell me the measured inhibition of O=C(CN1C(=O)c2ccccc2C1=O)Nc1ccc(S(=O)(=O)NCC2CCCO2)cc1 (centres undefined) , please.
-4.91

Value lookup for inhibition; key = "CCCS(=O)(=O)N1CCN(C(=O)CCC2CCCC2)CC1"
-1.11

# query: inhibition of entry O=C(O)C(c1ccccc1)N1CCCC1 (centres undefined)
-3.64

* * *

Experiment: SK-BR-3 cell growth inhibitors, pilot screen, 24 h, human (AID 572);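 further: compound exposure lasted between 18 and 24 h rather than exactly 24 h; 100% = carrier-treated control wells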
Details: SK-BR-3 viability, CellTiter-Glo luminescence, at 10 µM, stronger effect = lower value
Please use True for viability under 90% and False for everything else, ties included.

The examples below pair each entry with its known result.
NS(=O)(=O)c1ccc(NC(=O)N[C@@H](Cc2ccccc2)C(=O)O)cc1; True
Cc1csc(NC(=O)C2CCCO2)n1 (stereo unspecified); True

Check if viability falls below 90% for CC(CCc1ccccc1)NC(=O)c1ccc(Br)o1 (stereo unspecified) .
False

* * *

Test: 384-well plate pilot, post-Golgi transport modulator project, inhibition of yeast transport mutant growth (AID 636)
Details: absorbance 615 nm, about 18 h, stronger effect = higher value
PROPERTY_NAME: inhibition (%)
A number alone suffices; assume %.

Entry "CCOc1cc(C)c(C(C)C)cc1S(=O)(=O)N1CCN(C)CC1" : reported inhibition = ?
1.84

Recorded inhibition for "c1ccc(Cn2nnnc2CN2CCCC2)cc1" , please?
-6.3

For the compound "CCCCCC(=O)O[C@]1(C(C)=O)CC[C@H]2[C@@H]3CCC4=CC(=O)CC[C@]4(C)[C@H]3CC[C@@]21C" , what inhibition is on record?
5.84

Recorded inhibition of "Cc1nnc(NC(=O)CCC(=O)N2CCC(C)CC2)s1" , please.
-3.01

What value of inhibition has been reported for the following compound? Cn1c(=O)cc(SCC(=O)NCC2CCCO2)c2ccc(Cl)cc21 (centres undefined)
-0.26

I'd like to know its inhibition. The compound in question is O=C1OC(N2CCN(c3ccccn3)CC2)c2ccccc21 (centres undefined)
-4.53

Value lookup for inhibition; key = "O=C(NC(=O)c1ccc(Cl)cc1)Nc1cc(N2CCCCC2)ncn1"
-7.4

# query: inhibition of entry "O=C1c2ccccc2C(=O)N1CCC(=O)N1CCc2ccccc21"
-4.53

Request the reported inhibition associated with CC(C)c1nc(NCC2CCCO2)c(C#N)c2c1COC(C)(C)C2 (centres undefined)
-9.86

Report inhibition for "CCn1c(SCC(=O)Nc2ccc3c(c2)OCO3)nnc1-c1ccccc1O" please.
-1.69

Look up inhibition: "COc1cc(C(=O)Nc2cc(C)ccn2)cc(OC)c1OC"
0.55

Query: inhibition; subject: CCOC(=O)N1CCC(NC(=O)CCC(=O)N2CC(C)Oc3ccc(Cl)cc32)CC1 (centres undefined)
-5.53

Item "COc1cccc(Nc2nc(=O)[nH]nc2C)c1" has what recorded inhibition?
-2.08

May I ask what inhibition has been recorded for "CCCn1c(SCC(=O)NC(=O)NCc2ccco2)n[nH]c1=O" ?
-2.8

Which inhibition value is on record for COc1nc(OC)nc(N2CCC(NC(=O)C(Cc3ccc(C(C)C)cc3)NC(C)=O)CC2)n1 (centres undefined) ?
-7.5

Quick check: inhibition of "Cc1cccc(N(CC(=O)Nc2ccc(CC#N)cc2)S(C)(=O)=O)c1" ?
-10.8
